experiment: Solubility of coupling agents in tricresyl phosphate (oil) at 20° C (Table A); format: physicochemical
quantity: Solubility in g per g of tricresyl phosphate

molecule | reported measurement
CCCCCCCCCCCCOc1cccc(OC(CC)C(=O)Nc2cc(Cl)c(C)c(Cl)c2O)c1 (stereo not shown) | 0.7 g per g of tricresyl phosphate
COc1ccc(C(=O)NCCCP(=O)(OC(C)C)OC(C)C)cc1NC(=O)CC(=O)c1ccccc1Cl | > 5 g per g of tricresyl phosphate
CCC(Oc1ccc(C(C)(C)CC)cc1C(C)(C)CC)C(=O)Nc1cc(Cl)c(C)c(Cl)c1O (stereo not shown) | 0.4 g per g of tricresyl phosphate
CCCCC(CC)COP(=O)(CCCNC(=O)c1ccc(Cl)c(NC(=O)CC(=O)C(C)(C)C)c1)OCC(CC)CCCC (stereo not shown) | > 5 g per g of tricresyl phosphate
CCCCCCCCCCCCOc1cccc(OC(CC)C(=O)Nc2cccc(C(=O)NC3=NN(c4c(Cl)cc(Cl)cc4Cl)C(=O)C3)c2)c1 (stereo not shown) | 0.4 g per g of tricresyl phosphate
CCCCCCCCCCCCCCCCCCNS(=O)(=O)c1ccc(N(CCCC)CCCC)c(NC(=O)CC(=O)c2ccccc2)c1 | 1.2 g per g of tricresyl phosphate
CCCCCCCCCCCCCCCc1cccc(OC(CC)C(=O)Nc2cc(Cl)c(C)c(Cl)c2O)c1 (stereo not shown) | 0.7 g per g of tricresyl phosphate

* * *

experiment: Absorption maximum after colour development in a photographic silver halide layer according to Use Example I; type: physicochemical; details: pyrazolone coupling agents
quantity: Abs.max., second of two maxima (absorption maximum) (nm)

compound | reported measurement
CC(C)OP(=O)(CCCCCOc1cccc(C(=O)Nc2cccc(C(=O)NC3=NN(c4c(Cl)cc(Cl)cc4Cl)C(=O)C3)c2)c1)OC(C)C | 542
CC(C)OP(=O)(CCCOc1cc(OCCCP(=O)(OC(C)C)OC(C)C)cc(C(=O)Nc2cccc(C(=O)NC3=NN(c4ccccc4)C(=O)C3)c2)c1)OC(C)C | 530
CCCCC(CC)COP(=O)(CCCOc1cccc(C(=O)Nc2cccc(NC3=NN(c4c(Cl)cc(Cl)cc4Cl)C(=O)C3)c2)c1)OCC(CC)CCCC (stereo not drawn) | 530
CCCCOP(=O)(CCCOc1cccc(C(=O)Nc2ccc(C(=O)NC3=NN(c4c(Cl)cc(Cl)cc4Cl)C(=O)C3)cc2)c1)OCCCC | 543
CCCCOP(=O)(CCCOc1cc(OCCCP(=O)(OCCCC)OCCCC)cc(C(=O)Nc2cccc(C(=O)NC3=NN(c4c(C)cc(Cl)cc4Cl)C(=O)C3)c2)c1)OCCCC | 540
CCOP(=O)(CCCOc1ccc(NC2=NN(c3ccccc3)C(=O)C2)cc1)OCC | 526

* * *

experiment: Solubility of coupling agents in tricresyl phosphate (oil) at 20° C (Table A); assay type: physicochemical
The following compounds are listed with their measured Solubility in g per g of tricresyl phosphate values.
quantity: Solubility in g per g of tricresyl phosphate

compound | reported measurement
CCCCCCCCCCOc1cccc(OCCC(=O)Nc2cccc(NC(=O)CC(=O)c3ccccc3C)c2)c1 | 1 g per g of tricresyl phosphate
CCCCOP(=O)(CC(=O)Nc1cccc(NC(=O)CC(=O)c2ccccc2)c1)OCCCC | > 5 g per g of tricresyl phosphate
CCC(C)(C)c1ccc(OCC(=O)Nc2cccc(C(=O)NC3=NN(c4c(Cl)cc(Cl)cc4Cl)C(=O)C3)c2)c(C(C)(C)CC)c1 | 0.6 g per g of tricresyl phosphate
CCCCCCCCCCCCCCCc1cccc(OC(CC)C(=O)Nc2cccc(C(=O)NC3=NN(c4c(Cl)cc(Cl)cc4Cl)C(=O)C3)c2)c1 (stereo not shown) | 0.3 g per g of tricresyl phosphate

* * *

The following compounds are listed with their measured Abs.max., first of two maxima (subsidiary maximum) values.
Assay: Absorption maximum after colour development in a photographic silver halide layer according to Use Example I
Assay type: physicochemical
Conditions: pyrazolone coupling agents
Experimental: The compounds of the formulae which follow are prepared according to methods which are in themselves known, from the corresponding 4-equivalentcoupling agents (the corresponding compounds with hydrogen in the position marked with *, in place of the substituents drawn). With regard to methods of manufacture, compare DT-OS or DT-AS 1,236,332, 2,043,271, 1,547,672 or 1,187,477. Next to the formula, the absorption maximum in nm is specified in each case (see footnote to Table I). ##SPC8## […]
quantity: Abs.max., first of two maxima (subsidiary maximum) (nm)

compound | result units | reported measurement
CCCCC(CC)COP(=O)(CCCOc1cccc(C(=O)Nc2cccc(NC3=NN(c4c(Cl)cc(Cl)cc4Cl)C(=O)C3)c2)c1)OCC(CC)CCCC (centres unmarked) [(422)] | nm | 426
CCOP(=O)(CCCOc1cc(OCCCP(=O)(OCC)OCC)cc(C(=O)Nc2ccc(C(=O)NC3=NN(c4c(Cl)cc(Cl)cc4Cl)C(=O)C3)cc2)c1)OCC [(208)] | nm | 434
CCOP(=O)(CCCc1ccc(NC2=NN(c3cccc(Cl)c3)C(=O)C2)cc1)OCC [(410)] | nm | 438
CCOP(=O)(CCCOc1cccc(NC2=NN(c3cccc(Cl)c3)C(=O)C2)c1)OCC [(402)] | nm | 430
CCCCC(CC)COP(=O)(CCCOc1cccc(C(=O)Nc2cccc(C(=O)NC3=NN(c4c(C)cc(OC)cc4Cl)C(=O)C3)c2)c1)OCC(CC)CCCC (centres unmarked) [(264)] | nm | 440
CCCCOP(=O)(CCCOc1cc(OCCCP(=O)(OCCCC)OCCCC)cc(C(=O)Nc2cccc(NC3=NN(c4c(Cl)cc(Cl)cc4Cl)C(=O)C3)c2)c1)OCCCC [(424)] | nm | 427
CCOP(=O)(CCCOc1cccc(C(=O)Nc2cccc(NC3=NN(c4ccccc4)C(=O)C3)c2)c1)OCC [(414)] | nm | 430
CCCCOP(=O)(CCCOc1cc(OCCCP(=O)(OCCCC)OCCCC)cc(C(=O)Nc2cccc(NC3=NN(c4ccccc4)C(=O)C3)c2)c1)OCCCC [(423)] | nm | 430
CC(C)OP(=O)(CCCCCOc1cccc(C(=O)Nc2cccc(C(=O)NC3=NN(c4ccccc4)C(=O)C3)c2)c1)OC(C)C [(246)] | nm | 440
CC(C)OP(=O)(CCCOc1cccc(C(=O)NC2=NN(c3c(Cl)cc(Cl)cc3Cl)C(=O)C2)c1)OC(C)C [(217)] | nm | 435
CCOP(=O)(CCCCCOc1cccc(C(=O)Nc2ccc(C(=O)NC3=NN(c4c(Cl)cc(Cl)cc4Cl)C(=O)C3)cc2)c1)OCC [(207)] | nm | 434
CC(C)OP(=O)(CCCCCOc1cccc(C(=O)Nc2ccc(C(=O)NC3=NN(c4c(Cl)cc(Cl)cc4Cl)C(=O)C3)cc2)c1)OC(C)C [(244)] | nm | 434
CCOP(=O)(CCCOc1ccc(C(=O)Nc2cccc(C(=O)NC3=NN(c4c(Cl)cc(Cl)cc4Cl)C(=O)C3)c2)cc1)OCC [(206)] | nm | 434
CCOP(=O)(CCCCCOc1cccc(C(=O)Nc2cccc(C(=O)NC3=NN(c4c(Cl)cc(Cl)cc4Cl)C(=O)C3)c2)c1)OCC [(230)] | nm | 434
CCOP(=O)(CCCOc1cccc(C(=O)Nc2ccc(C(=O)NC3=NN(c4c(Cl)cc(Cl)cc4Cl)C(=O)C3)cc2)c1)OCC [(201)] | nm | 432
CCCCC(CC)COP(=O)(CCCOc1cccc(C(=O)Nc2cccc(C(=O)NC3=NN(c4c(Cl)cc(Cl)cc4OC)C(=O)C3)c2)c1)OCC(CC)CCCC (centres unmarked) [(268)] | nm | 438
CCOP(=O)(CCCOc1cccc(C(=O)Nc2cccc(C(=O)NC3=NN(c4ccccc4)C(=O)C3)c2)c1)OCC [(223)] | nm | 440
CCCCC(CC)COP(=O)(CCCOc1cccc(C(=O)Nc2cccc(C(=O)NC3=NN(c4cccc(Cl)c4)C(=O)C3)c2)c1)OCC(CC)CCCC (centres unmarked) [(256)] | nm | 438
CCCCOP(=O)(CCCOc1cccc(C(=O)Nc2c(C)cc(C)c(N3N=C(Nc4ccc(Cl)cc4)CC3=O)c2C)c1)OCCCC [(426)] | nm | 430
CC(C)OP(=O)(CCCOc1cc(OCCCP(=O)(OC(C)C)OC(C)C)cc(C(=O)Nc2cccc(C(=O)NC3=NN(c4ccccc4)C(=O)C3)c2)c1)OC(C)C [(238)] | nm | 440
CCCCC(CC)COP(=O)(CCCOc1ccc(C(=O)Nc2cccc(C(=O)NC3=NN(c4c(Cl)cc(Cl)cc4Cl)C(=O)C3)c2)c(OCCCP(=O)(OCC(CC)CCCC)OCC(CC)CCCC)c1)OCC(CC)CCCC (centres unmarked) [(251)] | nm | 436
CCOP(=O)(CCCOc1cc(OCCCP(=O)(OCC)OCC)cc(C(=O)NC2=NN(c3c(Cl)cc(Cl)cc3Cl)C(=O)C2)c1)OCC [(209)] | nm | 436
CCCCC(CC)COP(=O)(CCCOc1cc(OCCCP(=O)(OCC(CC)CCCC)OCC(CC)CCCC)cc(C(=O)Nc2cccc(C(=O)NC3=NN(c4c(C)cc(C)cc4Cl)C(=O)C3)c2)c1)OCC(CC)CCCC (centres unmarked) [(263)] | nm | 440
CCCCC(CC)COP(=O)(CCCOc1cccc(OCC(=O)Nc2cccc(C(=O)NC3=NN(c4c(Cl)cc(Cl)cc4Cl)C(=O)C3)c2)c1)OCC(CC)CCCC (centres unmarked) [(270)] | nm | 438
CCOP(=O)(CCCc1ccc(NC2=NN(c3c(Cl)cc(Cl)cc3Cl)C(=O)C2)cc1)OCC [(408)] | nm | 426
CCCCOP(=O)(CCCOc1cccc(NC2=NN(c3cccc(Cl)c3)C(=O)C2)c1)OCCCC [(411)] | nm | 428
